- assay.notes: yeast display, Sf9 membrane polyspecificity reagent, FACS + sequencing; frameworks hold sequencing errors
outcome.measure: polyreactivity (PSR sort gate)

[[record]]
chain = "QVQLVETGGGLVQAGGSLRLSCAASGGIFSYAMVWYRQAPGKEMELVADINSDGSTTYADSVKGRFTISRDNAKNTVYLQMNRLKPEDTAVYFCAVDVSVNWPLLERYEYWGQGSQVTVSS"
recorded_result = "low polyreactivity"

[[record]]
chain = "QVQLVESGGGLVQAGGSLRLSCAASGINFNKYAMGWYRQAPGKEREFVAAITYRGGSTYYADSVKGRFTISRDNAKNTVYFQMNSLKPEDTAVYYCAARRITTYYYWGQGTQVTVSS"
recorded_result = "high polyreactivity"

[[record]]
chain = "QVQLVESGGGLVQAGGSLRLSCAASGSIFYEYAMGWYRQAPGKERELVAAINWDGGTYYADSVKGRFTISRDNAKNTVYLQMNSLKPEDTAVYYCAKPYDWGVYSQSDSDYWGQGTQVTVSS"
recorded_result = "low polyreactivity"

[[record]]
chain = "QVQLVESGGGLVQAGGSLRLSCAASGSNVAVYVMGWYRQAPGKERELVAAISISAARTYYADSVKGRFTISRDNAKNTVYLQMNSLKPEDTAVYYGAARLVFRNDSWGQGTQVTVSS"
recorded_result = "high polyreactivity"

[[record]]
chain = "QVQLVESGGGLVQAGGSLRLSCAASGNIFVFYVMGWYRPAPGKERELVASISSTGNTYYADSVKGRFTISRDNAKNTVYLQMNSLKPEDTAVYYCNADPIFVYSSYNYWGQGTQVTVSS"
recorded_result = "low polyreactivity"

[[record]]
chain = "QVQLVESGGGLVQAGGSLRLSCAASGFTFVQYAMGWYRQAPGKERELVATISKSGGITYYADSVKGRFKISRDYAKNTVYLQMNSLKPEDTAVYYCAASWYYSSRGFHATWGHDYWGQGTQVTVSS"
recorded_result = "low polyreactivity"

[[record]]
chain = "QVQLVESGGGLVQAGGSLRLSCAASGRTLYRNDMGWYIQAPGKERELVARITWSGASTYYADSVKGRFTISRDNAKNSVYLQMKSLKTEDTAVYFCAALYLSRRYGPDDSYNFWGQGTQVTVSS"
recorded_result = "high polyreactivity"

[[record]]
chain = "QVQLVESGGGLVQAGGSLRLSCAASGFTFRVYAMGWYRPAPGKERELVAAISVRGDSTYYADSVKGRFTISRDNAKNTVYLQMNSLKPEDTAVYYCNAALLGKQYYSNPNYDYWGQGTQVTVSS"
recorded_result = "high polyreactivity"


Challenge: Give the reported value of polyreactivity (PSR sort gate) for this record: `QVQLVESGGGLVQAGGSLRLSCAASGIIFWYYAMGWYRQAPGKERELVAAISSGGGTNYADSVKGRFTISRDNAKNTVSLQMNSLKPEDTAVYYCNADDNPVWEYDYWGQGTQVTVSS`
Response given: low polyreactivity

Challenge: Give the reported value of polyreactivity (PSR sort gate) for this record: `QVQLVESGGGLVQAGGSLRLSCAASGSSFYYYAMGWYRQAPGKERELVAAITSGDTTNYADSVKGRFTISRDNAKNTVYLQMNSLIPEDTAVYYCAVDLNTTAFYPEAATYLDEYWGQGTQVTVSS`
Response given: low polyreactivity

Challenge: Give the reported value of polyreactivity (PSR sort gate) for this record: `QVQLVESGGGLVQAGGSLRLSCAASGIIFGRYAMGWYTPAPGKERELVATISYRGGRTYYADSVKGRFTISRDNAKNTVYLQMNSLKPEDTAVYYCAAPHFSYSGGTHDYWGQGTQVTVSS`
Response given: high polyreactivity

Challenge: Give the reported value of polyreactivity (PSR sort gate) for this record: `QVQLVQSGGCLVQAGGSLRLSCSASGSIFVHHDMGWYRQAPGKERELVAAISWGGGRTYYADSVKGRFTISRDNAKNTVYLQMNSLKPEDTAVYYCAVDGGEFSSYGYWGQGTQVTVSS`
Response given: low polyreactivity

----------
- assay.notes: yeast display, Sf9 membrane polyspecificity reagent, FACS + sequencing; frameworks hold sequencing errors
outcome.measure: polyreactivity (PSR sort gate)

For orientation, consider the following solved cases.
[[record]]
chain = "QVQLVESGGGLVQAGGSLRLSCAASGSTFYQYAMGWYRQAPGKERELGAAITRSGGSTYYADSVKGRFTISRDNAKNTVYLQMNSLKPEDPAVYYCAADRARRGIRDYYWGQGTQVTVSS"
outcome_measure = "polyreactivity (PSR sort gate)"
recorded_result = "high polyreactivity"

[[record]]
chain = "QVQLVESGGGLVQAGGSLRLSCAPSGSIFGINARAWYRQAPGKERELVAAISSGGSTNNADSVKGRFTISRDNAKNTVYFQMNSLKPEDTAVYYCAARLYYVRYNYWGQGTQGTVSS"
outcome_measure = "polyreactivity (PSR sort gate)"
recorded_result = "high polyreactivity"

[[record]]
chain = "QVQLVESGGGLVQAGGSLRLSCAAYGFTCPLNAMGWYRQAPGKERELVAAISGSSGSTYYADSVKGRFTISRDNAKNTVYLQMNSLKPEDTAVYYCAKKYAWRYYYWGQGTQVTVSS"
outcome_measure = "polyreactivity (PSR sort gate)"
recorded_result = "high polyreactivity"

[[record]]
chain = "QVQLVESGGGLVQAGGSLRLSCAASGSTFDGYAMGWYRQAPGKERELVAAINWGGGSTRYADSVKGRFTISRDNAKNTVYLQMNSVKPEDTAVYYCAARRFAYYFQYLVGGYWGQGTQVTVSS"
outcome_measure = "polyreactivity (PSR sort gate)"
recorded_result = "high polyreactivity"


Challenge: Give the reported value of polyreactivity (PSR sort gate) for this record: `QVQLVESGGGLVQAGGSLRLSCAASGRTFRLYAMGWYRQAPGKERELVAAISYSDGRTYYADSVKGRFTISRDNAKNTVYLQMNSLKPEDTAVYYCAAETLYVSPYFYVVQYDYWGQGTQVTVSS`
Response given: high polyreactivity

Challenge: Give the reported value of polyreactivity (PSR sort gate) for this record: `QVQLVESGGGLVQAGGSLRLSCAASGRIFTYNTMGWYRQSPGKEREFVASITYSGSSTYYADSVKGRFTISRDNAKNTVYLQMNSLKPEDTAVYYCATRYGYSDGDYWGHGTQVTVSS`
Response given: low polyreactivity

Challenge: Give the reported value of polyreactivity (PSR sort gate) for this record: `QFQLVESGGGIVQAGGSLRLSCYASGTFYKYAMGWNTQAPGKERELVAAISWRGGRTYADSVKGRFTISRDNAKNTVYLQMNSLIPEDTAVYYCYKRFYPEHYYWGQGTQVTVSS`
Response given: high polyreactivity

Challenge: Give the reported value of polyreactivity (PSR sort gate) for this record: `QVQLVESGGGLVQAGGSLRLSCAASGSTFSTNAMGWYRQAPGKERELVAAISRSGGSTYYADSVKGRFTISRDNAKNTVYLQMNSLKPEDTAVYYCARYSYRGTNVRYDYWGQGTQVTVSS`
Response given: high polyreactivity

Challenge: Give the reported value of polyreactivity (PSR sort gate) for this record: `QVQLVESGGGLVQAGGSLRLSCAASGLTFGSNAMGWYRQAPGKERELVAAITSSGGRTYYADSVKGRFTISRDNAKNTVYLQMNSLKPEVTAVYYCAAVYQILLYFPGRYDYWGQGTQVTVSS`
Response given: low polyreactivity

Challenge: Give the reported value of polyreactivity (PSR sort gate) for this record: `QVQLQDSGGGLVQAGGSLGLSCAASGYIFGSGSMGWFRQAPGKERELVATINNGSSTYYADSVKGRFTISRDNSKNTVSLQMNSLKPEDTAVYYCAVYLYRLTFFYYWGQGNQVTVSS`
Response given: high polyreactivity

----------
- assay.notes: yeast display, Sf9 membrane polyspecificity reagent, FACS + sequencing; frameworks hold sequencing errors
outcome.measure: polyreactivity (PSR sort gate)

For orientation, consider the following solved cases.
[[record]]
chain = "QVQLVESGGGLVQAGGSLRLSCAASGSTFQSNGMGWYRQAPGKERELVAAITSTDASTSYADSVKGRFTISRDNAKNTVYLQMNSLKPEDTAVYYCAADFPVASGAELDYWGQGTQVTVSS"
outcome_measure = "polyreactivity (PSR sort gate)"
recorded_result = "low polyreactivity"

[[record]]
chain = "QVQLEESGGGLVQAGASHRLSCAASGITFYWYAMGSYRQAPGKERELVAGISQSGSLTYYADSVKRRFTISRDNAKNTVYLQMKSLKPEDSAVYYCAARVRWSPSRTFEYWGQGSQVTVSS"
outcome_measure = "polyreactivity (PSR sort gate)"
recorded_result = "high polyreactivity"

[[record]]
chain = "QVQLVESGGGLVQAGGILRLSCAASGSIVVGYAMGWYRPAPGKERELVGAITGSGTRTDYADSVKGRFTISRDNAKNPVYLHMNSLKPEDTAVYNCAAPMSYKNVKYDYWGQGTQVTVSS"
outcome_measure = "polyreactivity (PSR sort gate)"
recorded_result = "low polyreactivity"

[[record]]
chain = "QVQLVESGGCLVQAGGSLRLSCAASGRTFYGYAMGWYRQAPGKERELVATITSGGSTNYADSVKGRFTISRDNAKNTVYLQMNSLKPEDTAVYYCAATTRLYGRHRRYNYWGQGTQVTVSS"
outcome_measure = "polyreactivity (PSR sort gate)"
recorded_result = "high polyreactivity"

[[record]]
chain = "QVQLVESGGGLVQAGGSLRLSCAASGFTLWLNAMGWYRQAPGKERELVAAITTSDDGTYYADSVKGRFTISRDNAKNSVYLQMNSLKPEDTAVYYCAADYYSVLYDYWGQGTQVTVSS"
outcome_measure = "polyreactivity (PSR sort gate)"
recorded_result = "low polyreactivity"

[[record]]
chain = "QVQLVESGGGLVQAGGSLRLSCAASRSTFSDNAMGWYRQAPGKERELVAAISRSGGSTYYADSVKGRFTISRDTAKNTVYLQMNSLKPEDTAVYYCATKRVLTGYDSWGQGTQVTVSS"
outcome_measure = "polyreactivity (PSR sort gate)"
recorded_result = "high polyreactivity"

[[record]]
chain = "QVQLVESGGGLVQAGGSLRLSCAASGRTISYYAMGWYRQAPGKERELVAAITSSGSRTYYADSVKGRFTISRDNAKNTVYLQMNSLKPEDTAVYYCAAGKPYFRYDSWGQGTQVTVSS"
outcome_measure = "polyreactivity (PSR sort gate)"
recorded_result = "high polyreactivity"

[[record]]
chain = "QVQLVESGRGLFQEGGSLRLSCAPSGFIFGKYAMGWYRQAPGTEREFVAAITRNGGSTYYADSVKGRVTISRDNAKNTVYLQMNSLKPDDTAVYYCNADRGYRRRTGMDDWGQVTQVTVSS"
outcome_measure = "polyreactivity (PSR sort gate)"
recorded_result = "low polyreactivity"


Challenge: Give the reported value of polyreactivity (PSR sort gate) for this record: `QVQLVESGGGLVQAGGSLRLSCAASGSIFGRNAKGSYRQAPGKERELVAAITVSGGRTYYADSVKGRFTISRDNAKNTVYLQMNSLKPEDTAVYYCNKYPVYRAVYGGGYEYWGQGTQVTVSS`
Response given: high polyreactivity

Challenge: Give the reported value of polyreactivity (PSR sort gate) for this record: `QVQLVESGGGIVQAGGRLRLSCAASGSIFLQYTMGWYRQAPGKERELVAAITESDGSTYYADSVKGRFTISRDNAKNTVYLQMNSLKPEDTAVYYCAADVVYFKYWDKYDYWGQGTQVTLSS`
Response given: low polyreactivity
